Numbers sourced from patent US20070117743A1.

system: HeLa; test: SRB colorimetric assay of cell growth and viability, HeLa; assay type: cell-based, human; settings: HELA; 48 hours exposure
Listing of entries alongside the reported TGI HELA.
recorded_metric: TGI HELA (Molar)

compound	recorded_metric	measurement_unit	value_measured
C/C=C1\NC(=O)[C@H](Cc2cccc(Cl)c2)NC(=O)[C@@H](C(C)C)NC(=O)[C@@H]([C@@H](C)CC)NC(=O)[C@H](NC(=O)[C@H](NC(=O)[C@H](CCCN)NC(=O)[C@H]2CCCN2C(=O)[C@H](NC(=O)[C@@H](NC(=O)[C@@H](NC(=O)[C@H](NC(=O)CCCC(C)C)C(C)C)[C@@H](C)O)C(C)C)C(C)C)[C@@H](C)CC)[C@@H](C)OC(=O)[C@H](C(C)C)NC1=O [Compound 82, [Phe(3-Cl)^3]-KF]	TGI HELA	Molar	2.75E−07
C/C=C1\NC(=O)[C@H](Cc2ccccc2)NC(=O)[C@@H](C(C)C)NC(=O)[C@@H]([C@@H](C)CC)NC(=O)[C@H](NC(=O)[C@H](NC(=O)[C@H](CCCN)NC(=O)[C@H]2CCCN2C(=O)[C@H](NC(=O)[C@@H](NC(=O)[C@@H](NC(=O)[C@@H](CCCN)NC(=O)CCCC(C)C)[C@@H](C)O)C(C)C)C(C)C)[C@@H](C)CC)[C@@H](C)OC(=O)[C@H](C(C)C)NC1=O [Compound 118, [D-Orn^13]-KF]	TGI HELA	Molar	3.30E−06

###

Reported GI50 values follow for various compounds
system: LoVo-Dox; experiment: SRB colorimetric assay of cell growth and viability, LoVo-Dox; assay type: cell-based, human; conditions: LOVO-DOX; 48 hours exposure
Where a SMILES comes first, the peptide text is derived from it. Bridges are numbered along the chain shown (N, C = ends). [ ]: non-standard residue; d: D form. The star is where a group is joined. Bip = N[C@@H](Cc1ccc(-c2ccccc2)cc1)C(=O)O; d(aIle) = CC[C@H](C)[C@@H](N)C(=O)O; d(aThr) = C[C@@H](O)[C@@H](N)C(=O)O; Hexanoyl(5-Me) = CC(C)CCCC(=O)*; Orn = NCCC[C@H](N)C(=O)O; Dhb = C/C=C(\N)C(=O)O

compound	GI50 [nM]
C/C=C1\NC(=O)[C@H](Cc2ccccc2Cl)NC(=O)[C@@H](C(C)C)NC(=O)[C@@H]([C@@H](C)CC)NC(=O)[C@H](NC(=O)[C@H](NC(=O)[C@H](CCCN)NC(=O)[C@H]2CCCN2C(=O)[C@H](NC(=O)[C@@H](NC(=O)[C@@H](NC(=O)[C@H](NC(=O)CCCC(C)C)C(C)C)[C@@H](C)O)C(C)C)C(C)C)[C@@H](C)CC)[C@@H](C)OC(=O)[C@H](C(C)C)NC1=O [Compound 81, [Phe(2-Cl)^3]-KF]	70.1
C/C=C1\NC(=O)[C@H](Cc2ccccc2)NC(=O)[C@@H](C(C)C)NC(=O)[C@@H]([C@@H](C)CC)NC(=O)[C@H](NC(=O)[C@H](NC(=O)[C@H](CCCN)NC(=O)[C@H]2CCCN2C(=O)[C@H](NC(=O)[C@@H](NC(=O)[C@H](Cc2ccccc2)NC(=O)[C@H](NC(=O)CCCC(C)C)C(C)C)C(C)C)C(C)C)[C@@H](C)CC)[C@@H](C)OC(=O)[C@H](C(C)C)NC1=O [Compound 114, [Phe^12]-KF] ({Hexanoyl(5-Me)}-[dV]FV[dV][dP][Orn][d(aIle)][d(aThr)][d(aIle)][dV]F[Dhb]V; ester 8-C)	180
C/C=C1\NC(=O)[C@H](Cc2ccc(-c3ccccc3)cc2)NC(=O)[C@@H](C(C)C)NC(=O)[C@@H]([C@@H](C)CC)NC(=O)[C@H](NC(=O)[C@H](NC(=O)[C@H](CCCN)NC(=O)[C@H]2CCCN2C(=O)[C@H](NC(=O)[C@@H](NC(=O)[C@@H](NC(=O)[C@H](NC(=O)CCCC(C)C)C(C)C)[C@@H](C)O)C(C)C)C(C)C)[C@@H](C)CC)[C@@H](C)OC(=O)[C@H](C(C)C)NC1=O [Compound 86, [Bip^3]-KF] ({Hexanoyl(5-Me)}-[dV]TV[dV][dP][Orn][d(aIle)][d(aThr)][d(aIle)][dV][Bip][Dhb]V; ester 8-C)	73.3
